So I've got a bunch of compounds here, and I need their pIC50 values.
Biological target: human D2R/β-arrestin (Homo sapiens (Human), UniProt P14416)
Sequence (P14416 whole entry): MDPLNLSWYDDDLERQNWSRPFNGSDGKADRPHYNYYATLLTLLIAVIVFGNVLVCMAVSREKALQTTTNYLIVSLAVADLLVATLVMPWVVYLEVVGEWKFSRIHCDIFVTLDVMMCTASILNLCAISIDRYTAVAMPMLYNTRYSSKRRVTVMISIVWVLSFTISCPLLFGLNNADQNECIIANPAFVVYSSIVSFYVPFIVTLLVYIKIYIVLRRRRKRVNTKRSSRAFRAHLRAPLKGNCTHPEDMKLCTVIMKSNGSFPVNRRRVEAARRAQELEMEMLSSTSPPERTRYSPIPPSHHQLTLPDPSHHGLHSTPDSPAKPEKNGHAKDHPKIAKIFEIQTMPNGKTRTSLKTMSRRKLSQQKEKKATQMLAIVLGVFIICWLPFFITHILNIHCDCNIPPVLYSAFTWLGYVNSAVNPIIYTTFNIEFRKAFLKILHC
Assay: cell-based
Details: cAMP Antagonist, CHO-K1 cells expressing human D2R/β-arrestin; antagonist mode, 2.5 μM forskolin and 2.7 nM quinpirole
pIC50: −log10 of the molar value.

Value wanted: pIC50 (human D2R/β-arrestin (Homo sapiens (Human), UniProt P14416)) of entry O=[N+]([O-])c1ccc(OC2(c3ccccc3)CCN(CCOc3ccccc3)C2)cc1 (stereo not drawn) 5.00 to 6.00

Follow-up item: CC1(NC(=O)C(F)(F)F)CCN(C[C@H]2COc3ccccc3O2)CC1 < 4.52

And then CC1(Oc2cccc(F)c2)CCN(CCOc2ccccc2)C1 (stereo not drawn) , what is it? < 4.52

Further, for C#CC1(O)CCN(CCOc2ccccc2C(F)(F)F)CC1 [Compound 302, reference compound] ? > 7.00

Could you do the same for FC(F)(F)c1ccccc1OCCN1CCC(=Cc2ccccc2)CC1 , please? 5.00 to 6.00

What about FC(F)(F)c1ccccc1OCCN1CCC2(CC1)CC2c1ccccc1 (stereo not drawn) ? 5.00 to 6.00

// next record CC1(Oc2ccc(Cl)cc2)CCN(CCNc2ccccc2C(F)(F)F)CC1 5.00 to 6.00

Try this compound next: CC1(Oc2ccc(Cl)cc2)CCN(CCOc2ccc(C(F)(F)F)cc2)CC1 < 4.52

Also CC(CO)N1CCC(C)(Oc2ccccc2)CC1 (stereo not drawn) ? < 4.52

* * *

Biological target: human D2R/β-arrestin (Homo sapiens (Human), UniProt P14416)
Assay: cell-based
Settings: cAMP Antagonist, CHO-K1 cells expressing human D2R/β-arrestin; antagonist mode, 2.5 μM forskolin and 2.7 nM quinpirole
pIC50: −log10 of the molar value.
measured-endpoint: pIC50

// pIC50 lookup, key: CNC(=O)C1(C)CCN(CC2COc3ccccc3O2)CC1 (single isomer, unassigned) [Compound 202b] 6.00 to 7.00

Quick one: CC1(Oc2ccccc2)CCN(CCOc2ccccc2OC(F)(F)F)CC1 < 4.52

What about FC(F)(F)c1ccccc1OCCN1CCC2(CC1)Cc1ccccc1O2 ? 6.00 to 7.00

Ok, now CC(C)Oc1cc(F)ccc1OCCN1CCC(C)(Oc2ccc(Cl)cc2)CC1 6.00 to 7.00

Another molecule: CC1(Oc2ccc(Cl)cc2)CCN(CCOc2ccccc2C(F)(F)F)C1 (stereo not shown) 6.00 to 7.00

Record: COc1ccccc1OCCN1CCC(C)(Oc2ccccc2)CC1 > 7.00

Consider next the molecule CC1(Oc2ccccc2[N+](=O)[O-])CCN(CCOc2ccccc2)C1 (stereo not shown) in the same way. < 4.52

Lookup CNC(=O)C1(C)CCN(CCOc2ccccc2F)CC1 6.00 to 7.00

Request: CC1(Oc2ccc(Cl)cc2)CCN(CCOc2ccccc2)CC1 < 4.52

How about CNC(=O)C1(C)CCN(CCOc2ccccc2C(F)(F)F)CC1 ? > 7.00

What do you get for CC1(Oc2ccccc2)CCN(CCOc2cccc3[nH]ccc23)CC1 ? < 4.52

Then CC1(Oc2ccccc2)CCN(CCOc2ccccc2Cl)CC1 ? < 4.52

How about CC1(C(O)c2ccccc2)CCN(CCOc2ccccc2C(F)(F)F)CC1 (stereo not shown) ? 6.00 to 7.00

Can you check CC(=O)NC1(C)CCN(C[C@H]2COc3ccc(F)cc3O2)CC1 next? < 4.52

Would you kindly repeat that for CC1(Oc2cccc(C(F)(F)F)c2)CCCN(CCOc2ccccc2)C1 (stereo not shown) ? 6.00 to 7.00

Next record, please: CC1(Oc2ccc(Cl)cc2)CCN(CCOc2ccc3ccc(=O)[nH]c3c2)C1 (stereo not shown) 5.00 to 6.00

What would you report for COc1ccccc1OC1(C)CCN(CCOc2ccccc2)C1 (stereo not shown) ? < 4.52

What would you report for CC1(Oc2ccc(Cl)cc2)CCN(CCOc2cccc(Cl)c2)C1 (stereo not shown) ? < 4.52

How about CNC(=O)C1(C)CCN(CC2COc3ccccc3O2)CC1 (stereo not shown) [Compound 202] ? 6.00 to 7.00

* * *

Biological target: human D2R/β-arrestin (Homo sapiens (Human), UniProt P14416)
Test: cell-based
Conditions: β-arrestin Antagonist, CHO-K1 cells expressing human D2R/β-arrestin; antagonist mode, quinpirole 130 nM
measured-endpoint: IC50

Fill in the blank: the reported IC50 of FC(F)(F)c1ccccc1OCCN1CCC2(CC1)Cc1ccccc1O2 is ____. 1000 to 10000 nM

Now the same for CC1(Oc2ccc(Cl)cc2)CCCN(CCOc2ccccc2Cl)C1 (stereo not drawn) 100 to 1000 nM

Input FC(F)(F)c1ccccc1OCCN1CCC2(CC1)CCN2c1ccc(Cl)cc1 100 to 1000 nM

Also need CC1(Oc2ccc(Cl)cc2)CCN(CC(=O)Nc2ccccc2C(F)(F)F)CC1 , thanks. > 30000 nM

Input CC1(Oc2ccc(Cl)cc2)CCN(CCOc2cnccc2C(F)(F)F)CC1 1000 to 10000 nM

Thanks! And CC1(Oc2ccccc2C(F)(F)F)CCN(CCOc2ccccc2)C1 (stereo not drawn) ? 1000 to 10000 nM

And then Clc1ccc(N2CCCC23CCN(CC2COc4ccccc4O2)CC3)cc1 (stereo not drawn) , what is it? < 100 nM

Subsequent entry: CC1(Oc2ccc(Cl)cc2)CCN(CCOc2ccc(F)cc2C(F)(F)F)CC1 100 to 1000 nM

// repeat for CC1(Oc2ccc(Cl)cc2)CCN(CCOc2ccncc2)CC1 and report 1000 to 10000 nM

* * *

Kindly state IC50 for each of the entries shown.
Biological target: human D2R/β-arrestin (Homo sapiens (Human), UniProt P14416)
Experiment: cell-based
Settings: β-arrestin Antagonist, CHO-K1 cells expressing human D2R/β-arrestin; antagonist mode, quinpirole 130 nM

State its IC50 on human D2R/β-arrestin (Homo sapiens (Human), UniProt P14416): CC1(Oc2ccc(Cl)cc2)CCCN(CCOc2ccccc2)C1 (centres unmarked) 100 to 1000 nM

CC1(C(O)c2ccccc2)CCN(CCOc2ccccc2C(F)(F)F)CC1 (centres unmarked) , same question. 100 to 1000 nM

How about this molecule: C#CC1(O)CCN(CCOc2ccccc2C(F)(F)F)CC1 [Compound 302, reference compound] < 100 nM

Can you handle CC1(Oc2ccccn2)CCN(CCOc2ccccc2C(F)(F)F)CC1 next? 100 to 1000 nM

How about CC(C)c1ccccc1OCCN1CCC(C)(Oc2ccccc2)CC1 ? 100 to 1000 nM

* * *

Biological target: human D2R/β-arrestin (Homo sapiens (Human), UniProt P14416)
Assay: cell-based
Conditions: cAMP Antagonist, CHO-K1 cells expressing human D2R/β-arrestin; antagonist mode, 2.5 μM forskolin and 2.7 nM quinpirole
pIC50: −log10 of the molar value.
Field: pIC50. Provide a value for each of the compounds that follow.

Fill in: pIC50 of CC1(O)CCCN(CCOc2ccccc2C(F)(F)F)C1 (stereo not drawn) is ___ 5.00 to 6.00

Thanks! And CC1(Oc2ccc(Cl)cc2)CCN(CCOc2ccc3ccccc3c2)C1 (stereo not drawn) ? 6.00 to 7.00

Now consider CC1(Oc2ccccc2)CCN(CCOc2ccc(F)cc2C(F)(F)F)CC1 and answer again. 6.00 to 7.00

Another: CC1(Oc2cccc(C(F)(F)F)c2)CCCN(CCOc2ccccc2Cl)C1 (stereo not drawn) 5.00 to 6.00

Next up: CC1(Oc2ccc(Cl)cc2)CCN(CCOc2ccc(S(C)(=O)=O)cc2)CC1 4.52 to 5.00

Try this compound next: CC1(Oc2cccc(C(F)(F)F)c2)CCCN(CCOc2ccccc2F)C1 (stereo not drawn) 6.00 to 7.00

Similarly, CC1(Oc2ccc(Cl)cc2)CCN(CCOc2ncccc2C(F)(F)F)CC1 ? > 7.00

Could you do the same for FC(F)(F)c1ccccc1OCCN1CCC2(CCCN2c2ccc(Cl)cc2)CC1 , please? > 7.00

Same for CC1(Oc2ccc(Cl)cc2)CCN(CCOc2ccc(C(F)(F)F)c(O)c2)CC1 < 4.52

* * *

Field: half-life. Provide a value for each of the molecules that follow.
Assay: Pharmacokinetic and brain distribution study in mice
Assay type: in vivo
Settings: mouse, ip; brain; single intraperitoneal dose 30 mg/kg, male C57BL/6 mice; read-out: Brain T1/2 (converted)
Reply numerically in h, unit not repeated.

Please give the measured half-life for this molecule: CC1(Oc2ccc(Cl)cc2)CCN(CCOc2ccccc2C(F)(F)F)CC1 [Compound 90] 4.2

Entry to check: CC1(Oc2ccc(Cl)cc2)CCN(CCOc2ccc(F)cc2C(F)(F)F)CC1 [Compound 157] 6

Next molecule up: CC1(Oc2ccc(Cl)cc2)CCN(CCOc2ccc(C(F)(F)F)cc2)CC1 [Compound 125] 7

* * *

Give measured EC50 for each item. Keep answers brief.
Biological target: human D2R/β-arrestin (Homo sapiens (Human))
Assay: β-arrestin agonist assay (PathHunter)
Type: cell-based
Settings: CHO-K1 cells expressing human D2R/β-arrestin; agonist mode

EC50 of CC(C)c1ccccc1OCCN1CCC(C)(Oc2ccccc2)CC1 [Example 71] on human D2R/β-arrestin (Homo sapiens (Human))? > 30 µM

Also CC(C)Oc1cc(F)ccc1OCCN1CCC(C)(Oc2ccc(Cl)cc2)CC1 [Compound 191] ? > 30 µM

Similarly, FC(F)(F)c1ccccc1OCCN1CCC2(CC1)CC2c1ccccc1 (stereo not shown) [Example 102] ? > 30 µM

Next record, please: CC1(Oc2ccccc2)CC2CCC(C1)N2CCOc1ccccc1C(F)(F)F (stereo not shown) [Example 78] > 30 µM

And the next one, CC1(C(=O)c2ccccc2)CCN(CCOc2ccccc2C(F)(F)F)CC1 [Example 106] ? > 30 µM

Another molecule to look at: CC1(Oc2ccc(Cl)cc2)CCN(CCOc2cccc(F)c2)C1 (stereo not shown) [Compound 180] > 30 µM

// repeat for CC1(Oc2cccc(N)c2)CCN(CCOc2ccccc2)C1 (stereo not shown) [Example 41] and report > 30 µM

Then what about the molecule CC1(Oc2ccc(Cl)cc2)CCN(CCOc2ccc(F)cc2C(F)(F)F)CC1 [Compound 157] ? > 30 µM

CN(CCN1CCC(C)(Oc2ccc(Cl)cc2)CC1)c1ccccc1C(F)(F)F [Compound 169] , same question. > 30 µM

Input CC1(Oc2ccccc2)CCN(CCn2cccc(C(F)(F)F)c2=O)CC1 [Example 77] > 30 µM

Also CC1(Oc2ccc(Cl)cc2)CCN(CCOc2ccc(C(F)(F)F)nc2)CC1 [Compound 147] , if possible. < 0.1 µM

Next entry: CC1(Oc2cccc(C(F)(F)F)c2)CCN(CCOc2ccccc2F)C1 (stereo not shown) [Example 64] > 30 µM

Continue with CC1(Oc2ccccc2)CCN(CCC(=O)c2ccccc2C(F)(F)F)CC1 [Compound 116] > 30 µM

What do we get for CC1(Oc2ccccc2)CCN(CCOc2ccccc2Cl)CC1 [Example 89] ? < 0.1 µM

Okay, and CC1(Oc2ccc(Cl)cc2)CCN(CCOc2ncccc2C(F)(F)F)CC1 [Compound 162] ? > 30 µM

Entry OC(c1ccccc1)C1(O)CCN(CCOc2ccccc2C(F)(F)F)CC1 (stereo not shown) [Example 103] please > 30 µM

Proceed to CC1(O)CCCN(CCOc2ccccc2C(F)(F)F)C1 (stereo not shown) [Compound 134] > 30 µM

Then what about the molecule CC(C)Oc1ccc(F)cc1OCCN1CCC(C)(Oc2ccc(Cl)cc2)CC1 [Compound 190] ? > 30 µM

Request: CC1(O)CCN(CCOc2ccccc2F)CC1 [Compound 131] 0.1 to 1 µM
